test: Highest frequency of acute liver toxicity observed during clinical trials, expressed as a percentage. [column '% AIGUE' in source]; conditions: human
Record form. Attribute: Hepatotoxicity (acute). Fill in for each entry.
Quick note: give the figure in %, leave out the unit.

Assign Hepatotoxicity (acute) to the following record: O=C1Nc2ccc(Cl)cc2C(c2ccccc2Cl)=NC1O (stereo not drawn)
0

Assign Hepatotoxicity (acute) to the following record: CCCCC(C)(C)[C@H](O)/C=C/[C@H]1[C@H](C)CC(=O)[C@@H]1C/C=C\CCCC(=O)O
0

Assign Hepatotoxicity (acute) to the following record: CCOC(=O)[C@H](CCc1ccccc1)N[C@@H](C)C(=O)N1CCC[C@H]1C(=O)O
0

Assign Hepatotoxicity (acute) to the following record: C=COCC(F)(F)F
0

Assign Hepatotoxicity (acute) to the following record: C/N=C(/Cc1ccc2ccccc2c1)NC
0

Assign Hepatotoxicity (acute) to the following record: CC(O)(CS(=O)(=O)c1ccc(F)cc1)C(=O)Nc1ccc(C#N)c(C(F)(F)F)c1 (stereo not drawn) [BICALUTAMIDE]
0

Assign Hepatotoxicity (acute) to the following record: CCOC(=O)OC(C)OC(=O)[C@@H]1N2C(=O)[C@@H](/N=C/N3CCCCCC3)[C@H]2SC1(C)C (stereo partly drawn)
0

Assign Hepatotoxicity (acute) to the following record: CC[C@@]1(O)C(=O)OCc2c1cc1n(c2=O)Cc2cc3c(CN(C)C)c(O)ccc3nc2-1
0

Assign Hepatotoxicity (acute) to the following record: CC(C)Nc1ncccn1
0

Assign Hepatotoxicity (acute) to the following record: CO/N=C(\C(=O)N[C@@H]1C(=O)N2C(C(=O)O)=C(CSc3nc(=O)c(=O)[nH]n3C)CS[C@H]12)c1csc(N)n1
4.6

Assign Hepatotoxicity (acute) to the following record: [Se]
0

Assign Hepatotoxicity (acute) to the following record: Nc1ccc(C(=O)O)c(O)c1
6.4

Assign Hepatotoxicity (acute) to the following record: CC(C)[C@@H](CC[C@@H](C)[C@H]1CC[C@H]2[C@@H]3[C@H](O)C[C@H]4C[C@@H](NCCCNCCCCN)CC[C@]4(C)[C@H]3CC[C@]12C)OS(=O)(=O)O
38.5

Assign Hepatotoxicity (acute) to the following record: O=C(Cc1cccs1)N[C@@H]1C(=O)N2C(C(=O)[O-])=C(C[n+]3ccccc3)CS[C@H]12
0

Assign Hepatotoxicity (acute) to the following record: CC(C)(Oc1ccc(C2CC2(Cl)Cl)cc1)C(=O)O (stereo not drawn) [CIPROFIBRATE]
0

Assign Hepatotoxicity (acute) to the following record: CO/N=C(\C(=O)N[C@@H]1C(=O)N2C(C(=O)O)=C(CSc3cnns3)CS[C@H]12)c1csc(N)n1
0

Assign Hepatotoxicity (acute) to the following record: Cc1oc(=O)oc1COC(=O)[C@@H]1N2C(=O)[C@@H](NC(=O)[C@H](N)c3ccccc3)[C@H]2SC1(C)C
0

Assign Hepatotoxicity (acute) to the following record: NS(=O)(=O)c1cc2c(cc1C(F)(F)F)NC(Cc1ccccc1)NS2(=O)=O (stereo not drawn) [BENDROFLUMETHIAZIDE]
0
